- assayed system: NS5B570-Con1 (Delta-21) (Hepatitis C virus genotype 1b)
- Construct: NS5B570-Con1 (Delta-21)
- assay procedure: NS5B inhibition assay
- Type: biochemical, HCV
- stated conditions: IC50 value, incorporation of tritiated NMP into acid-insoluble RNA, 2 hours at 37° C.
value kind: IC50

C[C@@]1(O)[C@H](O)[C@@H](COP(O)(=S)OP(=O)(O)OP(=O)(O)O)O[C@H]1n1cnc2c(=O)[nH]c(N)nc21 (single isomer, unassigned) [Compound 5h] ... 1 to 10 µM

Provide each entry's IC50 from the list below.
1. C[C@@]1(O)[C@H](O)[C@@H](COP(O)(=S)OP(=O)(O)OP(=O)(O)O)O[C@H]1n1ccc(=O)[nH]c1=O (single isomer, unassigned) [Compound 5a]
2. C[C@@]1(F)[C@H](O)[C@@H](COP(O)(=S)OP(=O)(O)OP(=O)(O)O)O[C@H]1n1ccc(=O)[nH]c1=O (single isomer, unassigned) [Compound 5d]
3. C[C@@]1(O)[C@H](O)[C@@H](COP(O)(=S)OP(=O)(O)OP(=O)(O)O)O[C@H]1n1cnc2c(=O)[nH]c(N)nc21 (single isomer, unassigned) [Compound 5g]
4. C[C@@]1(F)[C@H](O)[C@@H](COP(O)(=S)OP(=O)(O)OP(=O)(O)O)O[C@H]1n1cnc2c(=O)[nH]c(N)nc21 (single isomer, unassigned)
5. C[C@@]1(O)[C@H](O)[C@@H](COP(O)(=S)OP(=O)(O)OP(=O)(O)O)O[C@H]1n1ccc(=O)[nH]c1=O (single isomer, unassigned) [Compound 5b]
6. C[C@@]1(F)[C@H](O)[C@@H](COP(O)(=S)OP(=O)(O)OP(=O)(O)O)O[C@H]1n1ccc(=O)[nH]c1=O (single isomer, unassigned) [Compound 5c]

RESULT:
10 to 100 µM
10 to 100 µM
< 1 µM
< 1 µM
< 1 µM
1 to 10 µM
